FYI, the data here is from PubChem BioAssay (NCI).

# Tested on: NCI-H460 NSCLC
Mark one answer only. Choices: 1 (active), 0 (inactive)

q: What is the recorded call for this compound in the test? CC(C)[C@@H](CS(=O)(=O)C(C)C)N1C(=O)[C@@](C)(CC(=O)O)C[C@H](c2cccc(Cl)c2)[C@H]1c1ccc(Cl)cc1
a: 0

q: Assay outcome for CCCCc1nc2cc(/C=C/C(=O)NO)ccc2n1CCN(CC)CC : what was it?
a: 1

q: For this compound, state the assay outcome: COC1CCC(n2c([C@@H]3CCCC(=O)N3c3ccc(F)c(F)c3)nc3cc(-c4c(C)noc4C)ccc32)CC1 (some centres undefined)
a: 0

q: Hey, what did the test say about NCC(=O)CCC(=O)O ?
a: 0
